# EXPERIMENTAL_TARGET: GLP-1 receptor (GLP-1R), primary cAMP assay cell line (human, UniProt P43220 24-463)
# TEST_PROTOCOL: cell-based or functional assay
Starred links: 1 amine or outer side, 2 acyl side, 3 side chain; linkers in the order of their positions; H or OH if unused. Non-standard residues stand in square brackets, D forms with d. Groups on a side chain read outwards from the residue. Primed or numbered codes have the meaning given here. No end group written: not given here. *: point of attachment. γGlu = O=C(O)[C@H](CCC(=O)[*:2])N[*:1]; αMeF = C[C@](N)(Cc1ccccc1)C(=O)O; αMeK = C[C@](N)(CCCCN)C(=O)O; Lauroyl = CCCCCCCCCCCC(=O)*; αMeS = C[C@](N)(CO)C(=O)O; PEG2′ = not defined here; Aib = CC(C)(N)C(=O)O
MEASUREMENT_NAME: cAMP Primary assay EC50, n2 (pM)
Answer in pM, number only, no unit symbol.

Quickly give me recorded cAMP Primary assay EC50, n2 for H[Aib]EGS[αMeF]TSDV[αMeS]SYK([PEG2′-PEG2′-γGlu-Lauroyl])EGK([PEG2′-PEG2′-γGlu-Lauroyl])AA[αMeK]EFIK([PEG2′-PEG2′-γGlu-Lauroyl])FVVEGG-NH2 [SEQ ID NO: 452]
76.1

Tell me its cAMP Primary assay EC50, n2 given H[Aib]EGS[αMeF]TSDV[αMeS]SYK([PEG2′-PEG2′-γGlu-Lauroyl])EGEAA[αMeK]K([PEG2′-PEG2′-γGlu-Lauroyl])FIAK([PEG2′-PEG2′-γGlu-Lauroyl])VVEGG-NH2 [SEQ ID NO: 470] as the entry.
36.5

Tell me measured cAMP Primary assay EC50, n2 for H[Aib]EGS[αMeF]TSDV[αMeS]SYK([PEG2′-PEG2′-γGlu-Lauroyl])EGEAA[αMeK]K([PEG2′-PEG2′-γGlu-Lauroyl])FIAFK([PEG2′-PEG2′-γGlu-Lauroyl])VEGG-NH2 [SEQ ID NO: 486] please.
259

Determine its reported cAMP Primary assay EC50, n2: H[Aib]EGS[αMeF]TSDV[αMeS]SK([PEG2′-PEG2′-γGlu-Lauroyl])LEGK([PEG2′-PEG2′-γGlu-Lauroyl])AA[αMeK]EFIK([PEG2′-PEG2′-γGlu-Lauroyl])FVVEGG-NH2 [SEQ ID NO: 448]
106
